Origin of the recorded values: patent US7332476B2

// reported MIC per item
- Tested on: Staphylococcus aureus Stau_29213
- Procedure Details: MIC, broth microdilution (NCCLS)
- Assay type: cell-based
- Measurement Setup: Table 7, Strain ID A (Table 6): S. aureus Stau_29213; in µg/mL (unit assumed)

{"Compound": "CC[C@H]1OC(=O)[C@H](C)C(=O)[C@H](C)[C@@H](OC2O[C@H](C)C[C@H](N(C)C)[C@H]2O)[C@@](C)(OC)C[C@@H](C)C(=O)[C@H](C)[C@H]2N(CCCC(C)(C)n3cnc(-c4cccnc4)c3)C(=O)O[C@]12CC (stereo partly shown)", "MIC": 0.2}
{"Compound": "CCC1OC(=O)C(C)C(=O)C(C)C(OC2OC(C)CC(N(C)C)C2O)C(C)(OC)CC(C)C(=O)C(C)C2C1OC(=O)N2CCCCc1ccnc2c(C(F)(F)F)cccc12 (stereo not shown) [Compound 20q]", "MIC": 0.4}
{"Compound": "C/C=C/[C@]12OC(=O)N(CCCCn3cnc(-c4cccnc4)c3)[C@@H]1[C@@H](C)C(=O)[C@H](C)C[C@](C)(OC)[C@H](OC1O[C@H](C)C[C@H](N(C)C)[C@H]1O)[C@@H](C)C(=O)[C@@H](C)C(=O)O[C@@H]2CC (stereo partly shown)", "MIC": 3.13}

Okay, next one:
Tell me the measured MIC of CCC1OC(=O)C(C)C(=O)C(C)C(OC2OC(C)CC(N(C)C)C2O)C(C)(OC)CC(C)C(=O)C(C)C2C1OC(=O)N2CCCCc1ncc(-c2ccccc2)s1 (stereo not shown) [Compound 20t] , please. 0.78

---

- Test system: Streptococcus pneumoniae Stpn_Mef S 3427
- Procedure Details: MIC, broth microdilution (NCCLS)
- Type: cell-based
- Measurement Setup: Table 10, Strain ID Q (Table 8): Streptococcus pneumoniae Stpn_Mef S 3427; in µg/mL (unit assumed)
Attribute Measured: MIC
Form rule: numeric answer, no unit written next to it.

{"Compound": "C=C[C@]12OC(=O)N(CCCCn3cnc(-c4ccc(OCC)nc4)c3)[C@@H]1[C@@H](C)C(=O)[C@H](C)C[C@](C)(OC)[C@H](OC1O[C@H](C)C[C@H](N(C)C)[C@H]1O)[C@@H](C)C(=O)[C@@H](C)C(=O)O[C@@H]2CC (stereo partly shown)", "Test Value": 0.78}
{"Compound": "C=C[C@]12OC(=O)N(CCCCn3cnc(-c4ccc(C)nc4)c3)[C@@H]1[C@@H](C)C(=O)[C@H](C)C[C@](C)(OC)[C@H](OC1O[C@H](C)C[C@H](N(C)C)[C@H]1O)[C@@H](C)C(=O)[C@@H](C)C(=O)O[C@@H]2CC (stereo partly shown)", "Test Value": 0.1}

Okay, next one:
Tell me the measured MIC of C=C[C@]12OC(=O)N(CCCCn3cnc(-c4ccc(OC)nc4)c3)[C@@H]1[C@@H](C)C(=O)[C@H](C)C[C@](C)(OC)[C@H](OC1O[C@H](C)C[C@H](N(C)C)[C@H]1O)[C@@H](C)C(=O)[C@@H](C)C(=O)O[C@@H]2CC (stereo partly shown) , please. 0.2

---

- Test system: Staphylococcus aureus Stau_33591
- Procedure Details: MIC, broth microdilution (NCCLS)
- Assay type: cell-based
- Measurement Setup: strain ID B; broth microdilution; unit assumed
- Description: Strains. The bacterial isolates listed in Table 8 were cultivated from −70° C. frozen stocks by two consecutive overnight passages (P1, P2) at 35° C. on 5% blood agar (Remel, Lenexa, Kans.). Chocolate agar (Remel) is used for Haemophilus influenzae. H. influenzae and Streptococcus pneumoniae are incubated in 5-10% CO2 Drug Stock Preparation. […] Susceptibility Testing. MICs are determined by the broth microdilution method in accordance with the NCCLS guidelines. […]
Attribute Measured: MIC, strain ID B

{"Molecule": "C=C[C@]12OC(=O)N(CCCCn3cnc(-c4ccc(Cl)nc4)c3C)[C@@H]1[C@@H](C)C(=O)[C@H](C)C[C@](C)(OC)[C@H](OC1O[C@H](C)C[C@H](N(C)C)[C@H]1O)[C@@H](C)C(=O)[C@@H](C)C(=O)O[C@@H]2CC (some centres unmarked)", "MIC, strain ID B": "> 50 µg/mL"}

Okay, next one:
State its MIC, strain ID B on Staphylococcus aureus Stau_33591: C=C[C@]12OC(=O)N(CCCCn3cnc(-c4cnc(Cl)c(C)c4)c3)[C@@H]1[C@@H](C)C(=O)[C@H](C)C[C@](C)(OC)[C@H](OC1O[C@H](C)C[C@H](N(C)C)[C@H]1O)[C@@H](C)C(=O)[C@@H](C)C(=O)O[C@@H]2CC (some centres unmarked) > 50 µg/mL
